Origin of the recorded values: patent US20260258115A1

- experimental target: RSV prefusion F (preF), DS-Cav1 (Respiratory Syncytial Virus)
- experiment summary: BLI, IgG on anti-human IgG sensor, 100 nM antigen
Give pKd for every item shown.
Numbers only, as −log10 of the molar value.

Here is how some binders turned out for pKd.
Measured pKd of ADI-41153 (antibody, V domains shown) VH: EVQLVESGGGLVKPGGSLRLSCAASQFTFSTYDMSWVRQAPGKGLEWVASISSGSTYIYYADSVKGRFTISRDNAKHSLFLQMKSLRAEDTALYYCARQVLYDRGGYYLYYFDHWGQGTLVTVSS VL: DIQVTQSPSSLSASVGDRVTITCRASQTIASYLNWYQQKPGKAPNLLIYAASNLQSGVPSRFSGSGSGTEFTLTINTLQPEDFATYYCQQSYNFPYTFGQGTKVEIK : 9.03

Measured pKd of ADI-41189 (antibody, V domains shown) VH: QVQLVESGGGLVKPGGSLRLSCAASGFTFSSYSMNWVRQAPGKGLEWVSSMSSSSGYIDYADSVKGRFTISRDNAKNSLYLQMNSLRVEDTAVYYCARRNAVVVPSLMVVADYYYGMDVWGQGTTVTVSS VL: QSVLTQPPSVSGAPGQRVTISCTGSSSNIGAGYDVHWYQQLPGTAPKLLIYGNSNRPSGVPDRFSGSKSGTSASLAITGLQAEDEADYYCQSYDTSLSGPGYVFGTGTKLTVL : 8.54

Let's switch to this binder now.
Measured pKd of ADI-36679 (antibody, V domains shown) VH: QVQLVQSGAEVKKPGESLKISCKGSGYSFRSYWIAWVRQMPGKGLEWMGTIFPGDSDVTYSPSFQGQVTISVDKSTSTAYLQWGSLKASDTAIYYCARRYDYIDFWGQGTLVTVSS VL: DIQMTQSPSSLSASVGDRVTITCQASQDIINHLNWYQQKPGKAPKLLIYDASNLHPGVPSRFSGSGSGTYFTFTISSLQPDDFATYYCQQYDFLAHITFGPGTKVDIK : 9.06
